B1: NEUROD6 (parent)
chain: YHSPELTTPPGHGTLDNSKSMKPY

variants of: B1; experiment: protein stability index of a GFP-peptide fusion (GPS, HEK-293T) (PSI 1-6); higher = more stable; conditions: c terminus: a fixed tail appended;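 further: lentivirally expressed fusions sorted by FACS into six bins by GFP to DsRed ratio, PSI derived from sequencing read proportions per bin multiplied by bin number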
Consider the following variants; for each one, report its protein stability index.
Give bare numbers.

// solved cases for protein stability index follow
# variant.annotation, protein stability index
measured = [
    ("T7L", 2.3),
    ("K22A", 2.56),
    ("E5N", 2.43),
    ("P10S", 1.75),
    ("P9W", 1.94),
]

Return reported protein stability index values for all items listed beneath this line.
1. P10Q
2. P4C
3. Y1V
4. M21D
5. S20A
6. H2W
7. P4N
8. Y24R

A)
1: 2.02; 2: 2.38; 3: 4.69; 4: 2.39; 5: 2.04; 6: 3.91; 7: 2.46; 8: 2.48

Return reported protein stability index values for all items listed beneath this line.
1. S18F
2. P9R

A)
1: 1.81; 2: 2.29
